Target: T1, human gastric inhibitory peptide receptor (GIPR) (human, UniProt P48546 22-466)
T1 sequence (looked up): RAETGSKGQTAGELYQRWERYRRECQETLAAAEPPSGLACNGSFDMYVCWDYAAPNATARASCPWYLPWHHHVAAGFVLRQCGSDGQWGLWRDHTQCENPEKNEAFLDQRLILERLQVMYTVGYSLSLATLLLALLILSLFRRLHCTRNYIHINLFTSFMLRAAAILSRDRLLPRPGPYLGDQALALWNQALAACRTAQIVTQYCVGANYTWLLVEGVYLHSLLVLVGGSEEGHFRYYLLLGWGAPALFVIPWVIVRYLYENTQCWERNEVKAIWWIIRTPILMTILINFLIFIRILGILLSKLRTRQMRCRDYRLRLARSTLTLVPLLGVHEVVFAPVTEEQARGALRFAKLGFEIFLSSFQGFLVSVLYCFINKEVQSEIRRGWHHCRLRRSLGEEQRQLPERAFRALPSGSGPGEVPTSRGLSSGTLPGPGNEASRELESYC
Test: cell-based or functional assay
Numbered stars: 1 amine (or outer) side, 2 acyl side, 3 side chain; on linkers, the order of the positions; unused ones are H or OH. Square brackets hold non-standard residues; d marks the D form. Side chains are listed from the residue outwards. Ends that are not written are not given here. * marks the point of attachment. C18 diacid = O=C(O)CCCCCCCCCCCCCCCCC(=O)*; αMePhe(2-F) = C[C@](N)(Cc1ccccc1F)C(=O)O; γGlu = O=C(O)[C@H](CCC(=O)[*:2])N[*:1]; AEEA = NCCOCCOCC(=O)O; Aib = CC(C)(N)C(=O)O

BINDER | hGIPR cAMP EC50 ratio
Y[Aib]EGT[αMePhe(2-F)]TSDYSIXLDEKAQ[Aib]EFIQYLIEGGPSSGAPPPS-NH2 (not fully specified (residues 13, 17); printed as Y-Aib-EGT-αMeF(2F)-TSDYSI-αMeF-LDEK((2-[2-(2-Amino-ethoxy)-ethoxy]-acetyl)2-(γ-Glu)-CO-(CH2)18-CO2H)AQ-Aib-EFIQYLIEGGPSSGAPPPS-NH2) [Example 146] | 1.98
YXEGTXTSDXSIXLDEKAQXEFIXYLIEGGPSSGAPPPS (Y-Aib-EGT-αMeF(2F)-TSD-4Pal-SI-αMeF-LDEK((2-[2-(2-Amino-ethoxy)-ethoxy]-acetyl)2-(γ-Glu)-CO-(CH2)18-CO2H)AQ-Aib-EFI-(D-Glu)-YLIEGGPSSGAPPPS-NH2) [Example 182] | 4.37
Y[Aib]EGT[αMePhe(2-F)]TSDYSIXLDEK([AEEA-AEEA-γGlu-C18 diacid])AQ[Aib]EFI[dE]YLIEGGPSSG-NH2 (not fully specified (residue 13); printed as Y-Aib-EGT-αMeF(2F)-TSDYSI-αMeF-LDEK((2-[2-(2-Amino-ethoxy)-ethoxy]-acetyl)2-(γ-Glu)-CO-(CH2)16-CO2H)AQ-Aib-EFI-(D-Glu)-YLIEGGPSSG-NH2) [Example 219] | 5.86
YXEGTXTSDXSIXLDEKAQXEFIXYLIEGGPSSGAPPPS (Y-Aib-EGT-αMeF(2F)-TSD-3Pal-SI-αMeF-LDEK((2-[2-(2-Amino-ethoxy)-ethoxy]-acetyl)2-(γ-Glu)-CO-(CH2)18-CO2H)AQ-Aib-EFI-Aib-YLIEGGPSSGAPPPS-NH2) [Example 188] | 0.969
